# TEST_METHOD_NOTES: Bioavailability in monkey at 1 mg/kg, iv
# Type: ADME, organism-based, Macaca mulatta
# PROTOCOL_CONDITIONS: rhesus monkey, in vivo

# COMPOUND, bioavailability [%]
measured = [
    ("CCCCN1C(=O)[C@@H]([C@H](O)C2CCCCC2)NC(=O)C12CCN(Cc1ccc(Oc3ccc(C(=O)O)cc3)cc1)CC2.Cl [APLAVIROC HYDROCHLORIDE]", 4.6),
]

###

bioavailability by entry:
# TEST_METHOD_NOTES: Bioavailability in rat at 10 mg/kg, po
# Type: ADME, organism-based
# PROTOCOL_CONDITIONS: in vivo
READOUT_TYPE: bioavailability

# COMPOUND, READOUT_TYPE, RECORDED_RESULT
records = [
    ("CCCCN1C(=O)C(C(C)C)NC(=O)C12CCN(Cc1ccc(Oc3ccccc3)cc1)CC2.Cl (stereo unspecified)", "bioavailability", "1.3%"),
    ("CCCN1C(=O)[C@@H]([C@H](O)C2CCCCC2)NC(=O)C12CCN(Cc1ccc(Oc3ccc(C(=O)NC)cc3)cc1)CC2.Cl", "bioavailability", "11.2%"),
    ("CCCCN1C(=O)C(CC2CCCCC2)NC(=O)C12CCN(Cc1ccc(Oc3ccc(C(=O)NC)cc3)cc1)CC2.Cl (stereo unspecified)", "bioavailability", "1.9%"),
    ("CCCCN1C(=O)[C@@H]([C@H](O)C(C)C)NC(=O)C12CCN(Cc1ccc(Oc3ccc(C(=O)O)cc3)cc1)CC2.Cl", "bioavailability", "5.9%"),
    ("CCCCN1C(=O)[C@@H]([C@H](O)C2CCCCC2)NC(=O)C12CCN(Cc1ccc(Oc3ccc(NS(C)(=O)=O)cc3)cc1)CC2.Cl", "bioavailability", "5%"),
    ("CCCCN1C(=O)[C@@H]([C@H](O)C2CCCCC2)NC(=O)C12CCN(Cc1ccc(Oc3ccc(C(=O)NC)cc3)cc1)CC2.Cl", "bioavailability", "10%"),
]

###

AUC by entry:
# TEST_METHOD_NOTES: AUC in rat at 3 mg/kg, iv
# Format: ADME, organism-based
# Parameters: dose 3 mg/kg, route intravenous
# PROTOCOL_CONDITIONS: plasma

# COMPOUND, AUC (ng·h/mL)
measured = [
    ("CCCCN1C(=O)C(C(C)C)NC(=O)C12CCN(Cc1ccc(Oc3ccccc3)cc1)CC2.Cl (stereo unspecified)", 372),
    ("CCCN1C(=O)[C@@H]([C@H](O)C2CCCCC2)NC(=O)C12CCN(Cc1ccc(Oc3ccc(C(=O)NC)cc3)cc1)CC2.Cl", 1370),
    ("CCCCN1C(=O)[C@@H]([C@H](O)C2CCCCC2)NC(=O)C12CCN(Cc1ccc(Oc3ccc(C(=O)NC)cc3)cc1)CC2.Cl", 3780),
    ("CCCCN1C(=O)[C@@H]([C@H](O)C2CCCCC2)NC(=O)C12CCN(Cc1ccc(Oc3ccc(NS(C)(=O)=O)cc3)cc1)CC2.Cl", 1540),
    ("CCCCN1C(=O)C(CC2CCCCC2)NC(=O)C12CCN(Cc1ccc(Oc3ccc(C(=O)NC)cc3)cc1)CC2.Cl (stereo unspecified)", 400),
    ("CCCCN1C(=O)[C@@H]([C@H](O)C(C)C)NC(=O)C12CCN(Cc1ccc(Oc3ccc(C(=O)O)cc3)cc1)CC2.Cl", 2310),
]

###

# TEST_METHOD_NOTES: Clearance in monkey at 1 mg/kg, iv
# Type: ADME, organism-based, Macaca mulatta
# Design: dose 1 mg/kg, route intravenous
# PROTOCOL_CONDITIONS: rhesus monkey, in vivo
READOUT_TYPE: clearance (mL/min)

# MOLECULE, U, RECORDED_RESULT
rows = [
    ("CCCCN1C(=O)[C@@H]([C@H](O)C2CCCCC2)NC(=O)C12CCN(Cc1ccc(Oc3ccc(C(=O)O)cc3)cc1)CC2.Cl [APLAVIROC HYDROCHLORIDE]", "mL/min", 15),
]

###

# TEST_METHOD_NOTES: in vivo
# PROTOCOL_CONDITIONS: dog, plasma, po, 3 mg/kg

# COMPOUND, AUC (ng·h/mL)
data = [
    ("CCCCN1C(=O)[C@@H]([C@H](O)C2CCCCC2)NC(=O)C12CCN(Cc1ccc(Oc3ccc(C(=O)O)cc3)cc1)CC2.Cl [APLAVIROC HYDROCHLORIDE]", 189),
]

###

Stability by entry:
# Test system: Liver microsomes
# TEST_METHOD_NOTES: Metabolic stability in rat liver microsomes assessed as compound remaining after 15 mins
# Assay type: ADME, Microsome
# PROTOCOL_CONDITIONS: 0.25 h

# MOLECULE, Stability, %
rows = [
    ("CCCCN1C(=O)[C@@H]([C@H](O)C2CCC(O)CC2)NC(=O)C12CCN(Cc1ccc(Oc3ccc(C(=O)O)cc3)cc1)CC2.Cl (stereo partly specified)", 100),
    ("CCCCN1C(=O)[C@@H]([C@H](O)C2CCCCC2)NC(=O)C12CCN(Cc1ccc(Oc3ccc(C(N)=O)cc3)cc1)CC2.Cl", 19),
    ("CCCCN1C(=O)[C@@H]([C@H](O)C2CCCCC2)NC(=O)C12CCN(Cc1ccc(Oc3ccc(O)cc3)cc1)CC2.Cl", 23),
    ("CCCCN1C(=O)[C@@H]([C@H](O)C2CCCCCC2)NC(=O)C12CCN(Cc1ccc(Oc3ccc(C(=O)O)cc3)cc1)CC2.Cl", 59),
    ("CCCCN1C(=O)[C@@H]([C@H](O)C2CCCC2)NC(=O)C12CCN(Cc1ccc(Oc3ccc(C(=O)O)cc3)cc1)CC2.Cl", 100),
    ("CCCCN1C(=O)[C@@H]([C@H](O)C2CCC2)NC(=O)C12CCN(Cc1ccc(Oc3ccc(C(=O)O)cc3)cc1)CC2.Cl", 100),
    ("CCCCN1C(=O)[C@@H]([C@@H](O)C2CCC(O)CC2)NC(=O)C12CCN(Cc1ccc(Oc3ccc(C(=O)O)cc3)cc1)CC2.Cl (stereo partly specified)", 92),
    ("CCCCN1C(=O)[C@@H]([C@H](O)C2CCCCC2)NC(=O)C12CCN(Cc1ccc(Oc3ccccc3)cc1)CC2.Cl", 18),
    ("CCCCN1C(=O)[C@@H]([C@H](O)C2CC2)NC(=O)C12CCN(Cc1ccc(Oc3ccc(C(=O)O)cc3)cc1)CC2.Cl", 100),
    ("CCCCN1C(=O)[C@@H]([C@H](O)C(C)C)NC(=O)C12CCN(Cc1ccc(Oc3ccc(C(=O)O)cc3)cc1)CC2.Cl", 100),
    ("CCCCN1C(=O)[C@@H]([C@H](O)C2CCCCC2)NC(=O)C12CCN(Cc1ccc(Oc3ccc(NS(C)(=O)=O)cc3)cc1)CC2.Cl", 91),
]

###

# SYSTEM_NAME: C-C chemokine receptor type 5 (Homo sapiens, UniProt P51681)
# Sequence (P51681 whole entry): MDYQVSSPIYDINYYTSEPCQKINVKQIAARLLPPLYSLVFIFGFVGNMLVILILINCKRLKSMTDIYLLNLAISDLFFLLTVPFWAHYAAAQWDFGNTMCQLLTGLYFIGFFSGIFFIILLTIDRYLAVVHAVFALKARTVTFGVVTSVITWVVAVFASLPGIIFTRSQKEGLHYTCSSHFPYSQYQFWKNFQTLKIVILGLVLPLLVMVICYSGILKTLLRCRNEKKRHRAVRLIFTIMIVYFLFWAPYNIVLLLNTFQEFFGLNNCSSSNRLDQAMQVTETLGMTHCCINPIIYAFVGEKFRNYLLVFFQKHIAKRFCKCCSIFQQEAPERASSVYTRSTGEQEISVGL
# TEST_METHOD_NOTES: Antagonist activity at human CCR5 expressed in CHO cells assessed as inhibition of MIP-1alpha-induced calcium mobilization
pIC50: −log10 of the molar value.
Record T whenever pIC50 is at 7 or higher; record F when lower.

# COMPOUND, CLASSIFICATION
data = [
    ("CCCCN1C(=O)[C@@H]([C@H](O)C(C)C)NC(=O)C12CCN(Cc1ccc(Oc3ccc(C(=O)O)cc3)cc1)CC2.Cl", "T"),
    ("CCCCN1C(=O)[C@@H]([C@H](O)C2CCCCC2)NC(=O)C12CCN(Cc1ccc(Oc3ccc(S(C)(=O)=O)cc3)cc1)CC2", "T"),
    ("CCN1C(=O)[C@@H]([C@H](O)C2CCCCC2)NC(=O)C12CCN(Cc1ccc(Oc3ccc(C(=O)O)cc3)cc1)CC2", "T"),
    ("CCCCN1C(=O)[C@@H]([C@@H](O)C2CCC(O)CC2)NC(=O)C12CCN(Cc1ccc(Oc3ccc(C(=O)O)cc3)cc1)CC2.Cl (some centres not stated)", "T"),
    ("CNC(=O)c1ccc(Oc2ccc(CN3CCC4(CC3)C(=O)N[C@H]([C@H](O)C3CCCCC3)C(=O)N4CCN(C)C)cc2)cc1", "F"),
]

###

# TEST_METHOD_NOTES: Bioavailability in rat at 1 mg/kg, iv
# Format: ADME, organism-based
# PROTOCOL_CONDITIONS: in vivo
READOUT_TYPE: bioavailability (%)

# MOLECULE, RECORDED_RESULT
rows = [
    ("CCCCN1C(=O)[C@@H]([C@H](O)C2CCCCC2)NC(=O)C12CCN(Cc1ccc(Oc3ccc(C(=O)O)cc3)cc1)CC2.Cl [APLAVIROC HYDROCHLORIDE]", 23),
]
